Experiment: Pilot PK study of orally applied KB-R7943 in control and STZ-induced diabetic rats (LC-MS/MS)
Assay type: in vivo, rat
Conditions: Wistar, rat, urine, po, 10 mg/kg, control rats, 10 mg/kg p.o. once
readout: Tmax (h)
Field format: number, assumed h, no unit text.

Exercise: For the compound shown here, "N=C(N)SCCc1ccc(OCc2ccc([N+](=O)[O-])cc2)cc1" , give the reported Tmax.
Solution: 24

* * *

Experiment: Pilot PK study of orally applied KB-R7943 in control and STZ-induced diabetic rats (LC-MS/MS)
Format: in vivo, rat
Settings: Wistar, rat, urine, po, 10 mg/kg, STZ-diabetic rats, 10 mg/kg p.o. once
readout: Tmax
Report as: number unit

Exercise: For the compound shown here, N=C(N)SCCc1ccc(OCc2ccc([N+](=O)[O-])cc2)cc1 [KB-R7943] , give the reported Tmax.
Solution: 24 h

* * *

Assay: Pilot PK study of orally applied KB-R7943 in control and STZ-induced diabetic rats (LC-MS/MS)
Type: in vivo, rat
Details: Wistar, rat, hypothalamus, po, 10 mg/kg, STZ-diabetic rats, 10 mg/kg p.o. once
readout: Tmax (h)
Field format: number, assumed h, no unit text.

Exercise: For the compound shown here, "N=C(N)SCCc1ccc(OCc2ccc([N+](=O)[O-])cc2)cc1" , give the reported Tmax.
Solution: 1

* * *

Assay: Pilot PK study of orally applied KB-R7943 in control and STZ-induced diabetic rats (LC-MS/MS)
Assay type: in vivo, rat
Details: Wistar, rat, hippocampus, po, 10 mg/kg, hippocampus, control rats, 10 mg/kg p.o. once; read-out: AUC(0-24)
readout: AUC(0-t) (ng·h/mL)
Field format: number, assumed ng·h/mL, no unit text.

Exercise: For the molecule shown here, "N=C(N)SCCc1ccc(OCc2ccc([N+](=O)[O-])cc2)cc1" , give the reported AUC(0-t).
Solution: 449

* * *

Assay: Pilot PK study of orally applied KB-R7943 in control and STZ-induced diabetic rats (LC-MS/MS)
Assay type: in vivo, rat
Details: Wistar, rat, heart, po, 10 mg/kg, control rats, 10 mg/kg p.o. once
Experimental: Chromatographic separation was achieved by injecting 5 μL of the sample extract (on each instrument) into a Zorbax SB-C8 150 mm × 4.6 mm × 1.8 μm column. The mobile phase was a mixture in a gradient mode of two components: solvent A - 0.1% formic acid in water and solvent B - 0.1% formic acid in acetonitrile. […] Analytes were determined by selecting two characteristic target reactions (MRM transitions) and the retention time of the analytes. […]
readout: half-life (h)
Field format: number, assumed h, no unit text.

Exercise: For the molecule shown here, "N=C(N)SCCc1ccc(OCc2ccc([N+](=O)[O-])cc2)cc1" , give the reported half-life.
Solution: 7

* * *

Test: Pilot PK study of orally applied KB-R7943 in control and STZ-induced diabetic rats (LC-MS/MS)
Type: in vivo, rat
Settings: Wistar, rat, urine, po, 10 mg/kg, control rats, 10 mg/kg p.o. once
readout: Cmax (ng/mL)
Field format: number, assumed ng/mL, no unit text.

Exercise: For the compound shown here, "N=C(N)SCCc1ccc(OCc2ccc([N+](=O)[O-])cc2)cc1" , give the reported Cmax.
Solution: 47.2

* * *

Experiment: Pilot PK study of orally applied KB-R7943 in control and STZ-induced diabetic rats (LC-MS/MS)
Format: in vivo, rat
Conditions: Wistar, rat, hypothalamus, po, 10 mg/kg, STZ-diabetic rats, 10 mg/kg p.o. once
readout: Cmax (ng/mL)
Field format: number, assumed ng/mL, no unit text.

Exercise: For the compound shown here, N=C(N)SCCc1ccc(OCc2ccc([N+](=O)[O-])cc2)cc1 [KB-R7943] , give the reported Cmax.
Solution: 75
